Hello, the source for this data is ChEMBL document CHEMBL2218924, in case you need it.

Molecular target: Tyrosine-protein kinase Mer (Homo sapiens) (UniProt Q12866)
Sequence (whole entry): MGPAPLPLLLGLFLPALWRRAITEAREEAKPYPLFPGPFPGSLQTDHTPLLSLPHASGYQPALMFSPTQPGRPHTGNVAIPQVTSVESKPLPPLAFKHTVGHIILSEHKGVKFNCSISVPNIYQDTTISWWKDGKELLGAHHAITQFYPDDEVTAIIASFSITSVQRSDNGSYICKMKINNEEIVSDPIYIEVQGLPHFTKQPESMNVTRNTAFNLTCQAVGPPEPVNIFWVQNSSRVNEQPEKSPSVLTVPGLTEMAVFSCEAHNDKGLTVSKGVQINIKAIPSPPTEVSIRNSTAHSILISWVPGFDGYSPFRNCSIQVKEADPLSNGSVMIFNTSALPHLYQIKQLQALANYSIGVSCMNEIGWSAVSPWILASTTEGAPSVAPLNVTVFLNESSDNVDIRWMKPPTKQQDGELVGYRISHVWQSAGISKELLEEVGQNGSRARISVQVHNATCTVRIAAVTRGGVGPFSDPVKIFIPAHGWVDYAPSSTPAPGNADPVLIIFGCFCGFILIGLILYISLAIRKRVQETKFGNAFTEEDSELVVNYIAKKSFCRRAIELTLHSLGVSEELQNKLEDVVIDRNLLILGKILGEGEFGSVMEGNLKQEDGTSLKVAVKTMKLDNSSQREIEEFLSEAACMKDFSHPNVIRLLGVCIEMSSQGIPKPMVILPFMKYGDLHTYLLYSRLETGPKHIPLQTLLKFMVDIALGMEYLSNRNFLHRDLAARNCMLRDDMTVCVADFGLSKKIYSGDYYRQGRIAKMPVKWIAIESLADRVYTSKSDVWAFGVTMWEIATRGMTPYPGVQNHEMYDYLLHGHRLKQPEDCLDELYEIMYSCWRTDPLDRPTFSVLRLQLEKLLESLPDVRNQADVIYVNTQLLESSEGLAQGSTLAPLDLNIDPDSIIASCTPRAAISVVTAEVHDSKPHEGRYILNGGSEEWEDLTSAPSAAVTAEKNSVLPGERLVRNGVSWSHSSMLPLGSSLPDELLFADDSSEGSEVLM
Conditions: at 1 µM
Readout: residual activity (%)
# unit: % | format: bare number

{"Chemical structure": "O=C1Cc2c([nH]c3ccc(Br)cc23)-c2ccccc2N1", "residual activity [%]": 78}
{"Chemical structure": "Nc1n[nH]c2nc3ccccc3nc12", "residual activity [%]": 95}

Please look at the following compound next.
Reported Tyrosine-protein kinase Mer (Homo sapiens) (UniProt Q12866) residual activity for item O=C(Nc1nc2ccccc2n1CCN1CCOCC1)c1cccc([N+](=O)[O-])c1 was 75
